- Test system: 192522-019-R-J2-PDC complex tumor spheroid viability
- Assay Overview: Anticancer human tumor 192522-019-R-J2-PDC patient-derived colon adenocarcinoma cell line growth inhibition [POLQ]
- Protocol Conditions: second compound 0.316 µM; first compound 0.1 µM; stronger effect = lower value
- Procedure: Multicellular complex tumor spheroid response to Polymerase (POL) inhibitors (novobiocin, ART-558, RP6685) in combination with a variety of drugs and investigational agents in selected tumor cell lines The POL inhibitors (novobiocin, ART-558, and RP6685) were evaluated both individually and in combination with standard of care and investigational anticancer small molecules within a complex spheroid model of solid tumors. . […]
Property: viability, T/C (%)
// return numeric value only (unit: %, not printed)

Recorded viability, T/C of CCCS(=O)(=O)Nc1ccc(F)c(C(=O)c2c[nH]c3ncc(-c4ccc(Cl)cc4)cc23)c1F + COC1C(OC(N)=O)C(O)C(Oc2ccc3c(O)c(NC(=O)c4ccc(O)c(CC=C(C)C)c4)c(=O)oc3c2C)OC1(C)C , please. 110

And the next one, CC[C@@]1(O)C(=O)OCc2c1cc1n(c2=O)Cc2cc3c(CN(C)C)c(O)ccc3nc2-1 + Cc1cccc(N(C)C(=O)C2C(O)CCN2c2nc(C)cc(C(F)(F)F)c2C#N)c1 ? 70

Now the compound CC(C)n1c(=O)n(C)c2cnc3cc(F)c(-c4ccc(OCCCN5CCCCC5)nc4)cc3c21 + Nc1ccc(C#CCN(C(=O)Cc2ncc(C(F)(F)F)cc2C(F)(F)F)c2ccc(F)cc2)nn1 105

Param item: COc1cc(C2c3cc4c(cc3C(OC3OC5COC(C)OC5C(O)C3O)C3COC(=O)C23)OCO4)cc(OC)c1O (stereo unspecified) + Nc1ccc(C#CCN(C(=O)Cc2ncc(C(F)(F)F)cc2C(F)(F)F)c2ccc(F)cc2)nn1 100

For CNCc1ccc(-c2[nH]c3cc(F)cc4c3c2CCNC4=O)cc1 + COC1C(OC(N)=O)C(O)C(Oc2ccc3c(O)c(NC(=O)c4ccc(O)c(CC=C(C)C)c4)c(=O)oc3c2C)OC1(C)C then? 102

Another compound to check: COc1cccc2c1C(=O)c1c(O)c3c(c(O)c1C2=O)CC(O)(C(=O)CO)CC3OC1CC(N)C(O)C(C)O1 (stereo unspecified) + Cc1cccc(N(C)C(=O)C2C(O)CCN2c2nc(C)cc(C(F)(F)F)c2C#N)c1 91.1

* * *

- Tested on: 192522-019-R-J2-PDC complex tumor spheroid viability
- Assay Overview: Anticancer human tumor 192522-019-R-J2-PDC cell line growth inhibition [POLQ];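 note: spheroids exposed to drugs for seven days before reading; 100% = DMSO vehicle control viability in luminescence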
- Protocol Conditions: second compound 0.0316 µM; first compound 0.1 µM; stronger effect = lower value
Classes (viability, T/C): Low: < 70%; Medium: ≥ 70% and < 90%; High: ≥ 90%

Which viability, T/C band matches O=C(Nc1ccc(O)c(NS(=O)(=O)c2ccc(F)cc2)c1)c1ccc(-c2ccccc2)cc1 + COC1C(OC(N)=O)C(O)C(Oc2ccc3c(O)c(NC(=O)c4ccc(O)c(CC=C(C)C)c4)c(=O)oc3c2C)OC1(C)C ? High

Do the same for C=CC(=O)N1CCN(c2nc(=O)n(-c3c(C)ccnc3C(C)C)c3nc(-c4c(O)cccc4F)c(F)cc23)C(C)C1 (configuration not stated) + COC1C(OC(N)=O)C(O)C(Oc2ccc3c(O)c(NC(=O)c4ccc(O)c(CC=C(C)C)c4)c(=O)oc3c2C)OC1(C)C please High

Could you do the same for COc1cccc(OCCCN)c1-c1cc(Nc2cnc(C#N)cn2)n[nH]1 + Nc1ccc(C#CCN(C(=O)Cc2ncc(C(F)(F)F)cc2C(F)(F)F)c2ccc(F)cc2)nn1 , please? Low

Cool, now CC[C@@]1(O)C(=O)OCc2c1cc1n(c2=O)Cc2cc3c(CN(C)C)c(O)ccc3nc2-1 + COC1C(OC(N)=O)C(O)C(Oc2ccc3c(O)c(NC(=O)c4ccc(O)c(CC=C(C)C)c4)c(=O)oc3c2C)OC1(C)C Low

Ok, now COc1ccc([C@@H](O)c2cc(-c3ncnc4cc(N5CCOCC5)ccc34)c(F)cc2Cl)nn1 + Nc1ccc(C#CCN(C(=O)Cc2ncc(C(F)(F)F)cc2C(F)(F)F)c2ccc(F)cc2)nn1 High

How about COc1cccc2c1C(=O)c1c(O)c3c(c(O)c1C2=O)CC(O)(C(=O)CO)CC3OC1CC(N)C(O)C(C)O1 (configuration not stated) + COC1C(OC(N)=O)C(O)C(Oc2ccc3c(O)c(NC(=O)c4ccc(O)c(CC=C(C)C)c4)c(=O)oc3c2C)OC1(C)C ? Medium

What do you get for C=CC(=O)N1CCN(c2nc(=O)n(-c3c(C)ccnc3C(C)C)c3nc(-c4c(O)cccc4F)c(F)cc23)C(C)C1 (configuration not stated) + Cc1cccc(N(C)C(=O)C2C(O)CCN2c2nc(C)cc(C(F)(F)F)c2C#N)c1 ? Medium

Entry to check: CCc1c2c(nc3ccc(O)cc13)-c1cc3c(c(=O)n1C2)COC(=O)[C@]3(O)CC + COC1C(OC(N)=O)C(O)C(Oc2ccc3c(O)c(NC(=O)c4ccc(O)c(CC=C(C)C)c4)c(=O)oc3c2C)OC1(C)C Low

Record: CC[C@@]1(O)C(=O)OCc2c1cc1n(c2=O)Cc2cc3c(CN(C)C)c(O)ccc3nc2-1 + Nc1ccc(C#CCN(C(=O)Cc2ncc(C(F)(F)F)cc2C(F)(F)F)c2ccc(F)cc2)nn1 Medium
